The following compounds each carry a recorded DQ Spot for SH-SY5Y cells.

compound	DQ Spot
O=C1NC(=O)C(c2ccccc2Cl)=C1Nc1cccc(Cl)c1 [UNC10225092A]	94.92
O=C1NC(=O)C(N2CCc3ccccc32)=C1c1ccccc1Cl [UNC10225255A]	121.27

Batch lookup, DQ Spot per entry.
1. COc1ccccc1-c1ccc2c(NC(=O)C3CC3)n[nH]c2n1
2. CN(C1=C(c2ccccc2)C(=O)NC1=O)c1ccccc1 [UNC10225087A]
3. Cc1ccc(-n2nc(C(C)(C)C)cc2NC(=O)Nc2ccc(OCCN3CCOCC3)c3ccccc23)cc1 [UNC10225354A]
4. COc1ccc(C2=C(Nc3cccc(O)c3)C(=O)NC2=O)cc1 [UNC10225299A]
5. CCN1CCN(CCCC(=O)Nc2n[nH]c3nc(-c4ccc(O)cc4)c(Br)cc23)CC1

1: 92.69; 2: 112.39; 3: 116.14; 4: 115.16; 5: 103.09
